Measured IC50 values are reported for all entries that follow.
molecular target: angiotensin II receptor; test: Displacement of 125I- or 3H-angiotensin II from receptor preparations from various organs (liver, lung, adrenal gland, brain etc.); settings: Table 1; radioligand displacement, 25° C., 90 min, pH 7.4
Reply with just the number (in nM).

smiles-entry	IC50 / nM
C=C[C@H](Cc1ccccc1)NC(=O)NS(=O)(=O)c1ccccc1-c1ccc(Cn2c(CCCC)nc(SC)c2C(=O)O)cc1	3

IN: Dear colleague, I am looking for the recorded IC50 of the following molecule: CCCCc1nc(Cl)c(C=O)n1Cc1ccc(-c2ccccc2S(=O)(=O)NC(=O)Nc2nc(C)cs2)cc1
OUT: 3.5

IN: What does the record list as IC50 for CC#CCOC(=O)NS(=O)(=O)c1ccccc1-c1ccc(Cn2c(CCCC)nc(SC)c2C(=O)O)cc1 ?
OUT: 2.9

IN: Dear colleague, I am looking for the recorded IC50 of the following molecule: CCCCc1nc(SC)c(C(=O)OCC)n1Cc1ccc(-c2ccccc2S(=O)(=O)NS(=O)(=O)c2ccc([N+](=O)[O-])cc2)cc1
OUT: 21.4

IN: Any idea what IC50 was measured for CCCCc1nc(SC)c(C(=O)OCC)n1Cc1ccc(-c2ccccc2S(=O)(=O)NC(=O)N[C@H](CO)Cc2ccccc2)cc1 ?
OUT: 5.6

IN: Please give the measured IC50 for this molecule: CCCCc1nc(Cl)c(C=O)n1Cc1ccc(-c2ccccc2S(=O)(=O)NC(=O)Nc2ccccc2OC)cc1
OUT: 34

IN: Fill in the blank: the reported IC50 of CCCCc1nc(SC)c(C(=O)OCC)n1Cc1ccc(-c2ccccc2S(=O)(=O)NC(=O)n2cccc2)cc1 is ____.
OUT: 1.7

====

biological target: angiotensin II receptor; assay: Displacement of 125I- or 3H-angiotensin II from receptor preparations from various organs (liver, lung, adrenal gland, brain etc.); settings: Table 1; radioligand displacement, 25° C., 90 min, pH 7.4
reported-property: pIC50
// pIC50: -log10(molar conc.)

Some entries whose results are on file:
compound	pIC50
CCCCc1nc(SC)c(C(=O)O)n1Cc1ccc(-c2ccccc2S(=O)(=O)NC(=O)N[C@@H](Cc2ccccc2)C(=O)O)cc1 [Example 98]	8.85
CCCCc1nc(SC)c(C(=O)OCC)n1Cc1ccc(-c2ccccc2S(=O)(=O)NC(=O)OCC=Cc2ccccc2)cc1 [Example 161]	7.24
CCCCc1nc(SC)c(C(=O)OCC)n1Cc1ccc(-c2ccccc2S(=O)(=O)NC(=O)NCC2CCNCC2)cc1 [Example 117]	8.92
CCCCc1nc(Cl)c(C=O)n1Cc1ccc(-c2cccc(S(=O)(=O)NC(=O)Nc3ncccn3)c2)cc1 [Example 4]	5.96
CCCCc1nc(SC)c(C(=O)O)n1Cc1ccc(-c2ccccc2S(=O)(=O)NC(=O)OCC=C(C)C)cc1 [Example 165]	8.64

IN: Fill in the blank: the reported pIC50 of CCCCc1nc(Cl)c(C=O)n1Cc1ccc(-c2ccccc2S(=O)(=O)NC(=O)Nc2ccccc2C)cc1 [Example 36] is ____.
OUT: 7.80

IN: Quick one: pIC50 for CCCCc1nc(Cl)c(C=O)n1Cc1ccc(-c2ccccc2S(=O)(=O)NC(=O)Nc2ccccc2)cc1 [Example 1] ?
OUT: 5.30

IN: // pIC50 lookup, key: CCCCc1nc(SC)c(C(=O)OCC)n1Cc1ccc(-c2ccccc2S(=O)(=O)NC(=O)NCc2ccccc2)cc1 [Example 73]
OUT: 8.60

====

The reader will find reported pIC50 values listed item by item below.
molecular target: angiotensin II receptor; assay: Displacement of 125I- or 3H-angiotensin II from receptor preparations from various organs (liver, lung, adrenal gland, brain etc.); details: Table 1; radioligand displacement, 25° C., 90 min, pH 7.4
Note on units: pIC50 is unitless, being -log10 of a concentration expressed in mol/L.

// known answers, use as guide
compound	quantitative-readout
C=CCNC(=O)NS(=O)(=O)c1ccccc1-c1ccc(Cn2c(CCCC)nc(SC)c2C(=O)OCC)cc1 [Example 58]	8.52
C=C(C)COC(=O)NS(=O)(=O)c1ccccc1-c1ccc(Cn2c(CCCC)nc(SC)c2C(=O)O)cc1 [Example 166]	8.92
CCCCc1nc(SC)c(C(=O)O)n1Cc1ccc(-c2ccccc2S(=O)(=O)NC(=O)OCCc2ccccc2)cc1 [Example 152]	8.82
C=CCCCOC(=O)NS(=O)(=O)c1ccccc1-c1ccc(Cn2c(CCCC)nc(SC)c2C(=O)O)cc1 [Example 167]	8.40

IN: Fill blank: measured pIC50 of the compound CCCCc1nc(SC)c(C(=O)OCC)n1Cc1ccc(-c2ccccc2S(=O)(=O)NC(=O)N[C@H](C(=O)OC)C(C)CC)cc1 (stereo partly shown) [Example 68] is ____.
OUT: 7.92

IN: Item under review: CCCCc1nc(SC)c(C(=O)O)n1Cc1ccc(-c2ccccc2S(=O)(=O)NC(=O)NCC2CCC3CC2C3(C)C)cc1 (stereo not shown) [Example 135] . Reported pIC50?
OUT: 8.25

IN: Using the record for CCCCc1nc(Cl)c(C=O)n1Cc1ccc(-c2ccccc2S(=O)(=O)NC(=O)Nc2ccccc2F)cc1 [Example 24] , report its pIC50.
OUT: 6.10
